Origin of values: ChEMBL document CHEMBL4011622

Target: Ionotropic glutamate receptor NMDA 1/2D (Rattus norvegicus) (UniProt P35439+Q62645)
Experiment: Positive allosteric modulation of recombinant rat GluN1/GluN2D receptor expressed in xenopus laevis oocyte assessed as potentiation of glutamate and glycine-induced current response at 30 uM at holding potential -40mV by two electrode voltage clamp method relative to control
measured-parameter: Activity (%)

[
  {
    "compound": "CC(C)Oc1ccc2c(c1)CCN(C(=O)c1cccc(F)c1)C2COc1ccc(OC(F)(F)F)cc1 (stereo not given)",
    "Activity, %": 136
  },
  {
    "compound": "COc1ccc(OCC2c3ccc(N4CCCCC4)cc3CCN2C(=O)c2cccc(Cl)c2)cc1 (stereo not given)",
    "Activity, %": 418
  }
]

[a] CC(C)Oc1ccc(OCC2c3ccc(OC(C)C)cc3CCN2C(=O)c2cccc(F)c2)cc1 (stereo not given)
[b] CCOc1ccc2c(c1)CCN(C(=O)c1cccc(Cl)c1)C2COc1ccc(OC)cc1 (stereo not given)
[c] CCOc1ccc(OCC2c3ccc(OC(C)C)cc3CCN2C(=O)c2cccc(OC)c2)cc1 (stereo not given)
Ascending by Activity, please: list the compounds accordingly. List the labels in the requested order.
c, a, b
(c: 44%, a: 103%, b: 329%)

* * *

Target: Glutamate NMDA receptor; Grin1/Grin2b (Rattus norvegicus, UniProt P35439+Q00960)
Sequence (Q00960 whole entry, other chains not shown): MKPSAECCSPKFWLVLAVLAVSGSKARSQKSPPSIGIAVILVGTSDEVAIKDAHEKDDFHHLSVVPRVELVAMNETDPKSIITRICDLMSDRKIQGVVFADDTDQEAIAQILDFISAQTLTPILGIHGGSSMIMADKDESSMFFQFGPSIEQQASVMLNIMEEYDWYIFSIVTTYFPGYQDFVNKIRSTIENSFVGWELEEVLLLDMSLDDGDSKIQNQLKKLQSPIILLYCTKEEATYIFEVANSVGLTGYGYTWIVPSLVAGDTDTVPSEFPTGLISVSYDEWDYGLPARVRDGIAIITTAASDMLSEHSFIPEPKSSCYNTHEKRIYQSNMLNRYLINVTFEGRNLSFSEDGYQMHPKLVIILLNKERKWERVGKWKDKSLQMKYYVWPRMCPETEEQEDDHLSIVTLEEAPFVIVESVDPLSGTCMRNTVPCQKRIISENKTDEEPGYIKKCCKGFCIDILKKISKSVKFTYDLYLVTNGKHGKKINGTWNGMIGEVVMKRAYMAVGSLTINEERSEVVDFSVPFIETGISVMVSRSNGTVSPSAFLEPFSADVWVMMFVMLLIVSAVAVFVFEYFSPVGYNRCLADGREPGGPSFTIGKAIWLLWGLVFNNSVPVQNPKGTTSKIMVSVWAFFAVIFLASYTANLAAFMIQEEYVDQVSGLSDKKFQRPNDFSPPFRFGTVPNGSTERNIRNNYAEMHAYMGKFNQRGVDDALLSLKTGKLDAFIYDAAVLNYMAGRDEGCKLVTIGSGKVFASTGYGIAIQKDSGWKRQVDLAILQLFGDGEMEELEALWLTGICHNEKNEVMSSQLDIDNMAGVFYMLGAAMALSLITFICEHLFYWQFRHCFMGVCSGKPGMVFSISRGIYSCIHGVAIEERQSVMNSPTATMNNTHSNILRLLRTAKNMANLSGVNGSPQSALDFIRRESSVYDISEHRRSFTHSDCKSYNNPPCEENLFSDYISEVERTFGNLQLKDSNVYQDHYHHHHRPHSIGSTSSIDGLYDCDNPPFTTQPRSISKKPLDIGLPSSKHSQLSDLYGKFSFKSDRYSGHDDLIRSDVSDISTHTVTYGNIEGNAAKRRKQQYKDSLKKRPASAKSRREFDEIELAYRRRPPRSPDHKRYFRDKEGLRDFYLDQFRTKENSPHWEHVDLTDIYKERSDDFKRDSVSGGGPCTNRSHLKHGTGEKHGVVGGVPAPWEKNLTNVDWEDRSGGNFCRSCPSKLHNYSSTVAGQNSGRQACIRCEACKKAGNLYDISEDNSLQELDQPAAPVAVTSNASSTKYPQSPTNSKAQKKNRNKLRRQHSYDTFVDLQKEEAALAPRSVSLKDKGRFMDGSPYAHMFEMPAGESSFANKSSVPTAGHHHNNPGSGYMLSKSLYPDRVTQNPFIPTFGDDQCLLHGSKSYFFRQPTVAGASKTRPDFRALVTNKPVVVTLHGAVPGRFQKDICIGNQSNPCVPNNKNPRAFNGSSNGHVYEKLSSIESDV
Experiment: Positive allosteric modulation of recombinant rat GluN1/GluN2B receptor expressed in xenopus laevis oocyte assessed as potentiation of glutamate and glycine-induced current response at holding potential -40mV by two electrode voltage clamp method
measured-parameter: EC50 (µM)

[I] CCOc1ccc(OCC2c3ccc(OC(C)C)cc3CCN2C(=O)c2cccc(Br)c2)cc1 (stereo not given)
[II] COc1ccc(OCC2c3ccc(OC(C)C)cc3CCN2C(=S)c2cccc(F)c2)cc1 (stereo not given)
Pick the one with the larger EC50: I vs II The response must carry the label of the picked entry.
I

[I] CCOc1ccc(OCC2c3ccc(OC(C)C)cc3CCN2C(=O)c2ccc(F)c(F)c2)cc1 (stereo not given)
[II] CCOc1ccc(OCC2c3ccc(OC(C)C)cc3CCN2C(=S)c2cccc(Br)c2)cc1 (stereo not given)
Compare I and II by numeric EC50 and name the larger one. Please identify the chosen entry by its label.
I
(I: 3.7 µM, II: 0.34 µM)

* * *

Target: Glutamate NMDA receptor; Grin1/Grin2b (Rattus norvegicus, UniProt P35439+Q00960)
Assay: Positive allosteric modulation of recombinant rat GluN1/GluN2B receptor expressed in xenopus laevis oocyte assessed as potentiation of glutamate and glycine-induced current response at holding potential -40mV by two electrode voltage clamp method
measured-parameter: EC50 (µM)

[1] CCOc1ccc(OCC2c3ccc(OC(C)C)cc3CCN2C(=O)c2cccc(F)c2)cc1 (centres undefined)
[2] COc1ccc(OCC2c3ccc(OC4CCCCC4)cc3CCN2C(=O)c2cccc(Cl)c2)cc1 (centres undefined)
[3] COc1ccc(OCC2c3ccc(N4CCOCC4)cc3CCN2C(=O)c2cccc(Br)c2)cc1 (centres undefined)
[4] CCOc1ccc(OC[C@@H]2c3ccc(OC(C)C)cc3CCN2C(=S)c2cccc(F)c2)cc1
[5] CCOc1ccc(OCC2c3ccc(OC(C)C)cc3CCN2C(=S)c2ccc(F)c(Cl)c2)cc1 (centres undefined)
hey, can you rank those molecules up there by EC50? biggest number first please # respond with the labels, arranged in the requested order
1, 3, 2, 5, 4
(1: 7.2 µM, 3: 4.8 µM, 2: 2.7 µM, 5: 0.84 µM, 4: 0.49 µM)

[1] CCOc1ccc(OCC2c3ccc(OC4CCCC4)cc3CCN2C(=O)c2cccc(F)c2)cc1 (centres undefined)
[2] COc1ccc(OCC2c3ccc(N4CCOCC4)cc3CCN2C(=O)c2cccc(Cl)c2)cc1 (centres undefined)
[3] CCOc1ccc(OCC2c3ccc(OCC(C)C)cc3CCN2C(=O)c2cccc(F)c2)cc1 (centres undefined)
With regard to EC50, arrange the entries in ascending order, please. Answer by naming the labels in the order asked.
3, 1, 2
